FYI, the data here is from patent US10294212B2.

Kindly supply the reported IC50 values for the records listed here.
Counter-ions that a name gives are not always drawn.

# returns recorded IC50 (system: Human indoleamine 2,3-dioxygenase1 (hIDO1) (Homo sapiens (Human), UniProt P14902)) for Nc1oc2cnccc2c1Nc1ccc(F)c(Cl)c1F
# Sequence (P14902 whole entry): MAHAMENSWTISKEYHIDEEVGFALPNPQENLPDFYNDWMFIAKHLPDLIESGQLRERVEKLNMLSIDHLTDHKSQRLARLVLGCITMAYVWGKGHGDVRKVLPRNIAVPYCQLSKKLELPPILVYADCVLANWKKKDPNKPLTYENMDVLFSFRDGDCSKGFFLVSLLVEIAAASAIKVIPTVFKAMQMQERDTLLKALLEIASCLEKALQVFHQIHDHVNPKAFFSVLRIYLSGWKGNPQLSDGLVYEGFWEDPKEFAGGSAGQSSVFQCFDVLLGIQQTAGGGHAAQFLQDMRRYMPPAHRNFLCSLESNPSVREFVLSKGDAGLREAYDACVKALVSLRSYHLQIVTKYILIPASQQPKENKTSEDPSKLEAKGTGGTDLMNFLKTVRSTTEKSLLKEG
200 to 1000 nM

# returns recorded IC50 (system: Human indoleamine 2,3-dioxygenase1 (hIDO1) (Homo sapiens (Human), UniProt P14902)) for Nc1oc2cnccc2c1Nc1ccc(OC(F)(F)F)cc1
> 1000 nM

# returns recorded IC50 (system: Human indoleamine 2,3-dioxygenase1 (hIDO1) (Homo sapiens (Human), UniProt P14902)) for Cc1cc(Br)ccc1Nc1c(N)sc2ccccc12
> 1000 nM

# returns recorded IC50 (system: Human indoleamine 2,3-dioxygenase1 (hIDO1) (Homo sapiens (Human), UniProt P14902)) for Nc1sc2ccccc2c1Sc1cccc(Cl)c1
> 1000 nM

# returns recorded IC50 (system: Human indoleamine 2,3-dioxygenase1 (hIDO1) (Homo sapiens (Human), UniProt P14902)) for Cc1cc(-c2nccc3c(Nc4cc(Cl)ccc4F)c(N)oc23)ccn1
< 200 nM

# returns recorded IC50 (system: Human indoleamine 2,3-dioxygenase1 (hIDO1) (Homo sapiens (Human), UniProt P14902)) for CC(C)Oc1cccc(Nc2c(N)oc3cnccc23)c1
> 1000 nM

# returns recorded IC50 (system: Human indoleamine 2,3-dioxygenase1 (hIDO1) (Homo sapiens (Human), UniProt P14902)) for COC(=O)Nc1oc2cnccc2c1Nc1ccc(F)c(Cl)c1
> 1000 nM

# returns recorded IC50 (system: Human indoleamine 2,3-dioxygenase1 (hIDO1) (Homo sapiens (Human), UniProt P14902)) for Cc1cc(-c2nccc3c(Nc4ccccc4N4CCCCC4)c(N)oc23)ccn1
> 1000 nM

# returns recorded IC50 (system: Human indoleamine 2,3-dioxygenase1 (hIDO1) (Homo sapiens (Human), UniProt P14902)) for CCCc1nccc2c(Nc3ccc(F)c(Cl)c3)c(N)oc12
< 200 nM

# returns recorded IC50 (system: Human indoleamine 2,3-dioxygenase1 (hIDO1) (Homo sapiens (Human), UniProt P14902)) for CCCc1nccc2c(Nc3cccc(C(F)(F)F)c3)c(N)oc12
< 200 nM

# returns recorded IC50 (system: Human indoleamine 2,3-dioxygenase1 (hIDO1) (Homo sapiens (Human), UniProt P14902)) for Cc1ccc(Nc2c(N)oc3cnccc23)cc1C
200 to 1000 nM

# returns recorded IC50 (system: Human indoleamine 2,3-dioxygenase1 (hIDO1) (Homo sapiens (Human), UniProt P14902)) for N#Cc1ccc2c(Nc3ccc(F)c(Cl)c3)c(N)sc2c1
> 1000 nM

# returns recorded IC50 (system: Human indoleamine 2,3-dioxygenase1 (hIDO1) (Homo sapiens (Human), UniProt P14902)) for Nc1oc2c(-c3cc(F)ccc3Cl)nccc2c1Nc1ccc(F)c(Cl)c1
< 200 nM

# returns recorded IC50 (system: Human indoleamine 2,3-dioxygenase1 (hIDO1) (Homo sapiens (Human), UniProt P14902)) for CNC(=O)c1cc(-c2nccc3c(Nc4cccc(C(F)(F)F)c4)c(N)oc23)ccn1
< 200 nM

# returns recorded IC50 (system: Human indoleamine 2,3-dioxygenase1 (hIDO1) (Homo sapiens (Human), UniProt P14902)) for COc1cc2c(Nc3ccc(F)c(Cl)c3)c(N)oc2c(-c2ccc(F)cc2)n1
< 200 nM

# returns recorded IC50 (system: Human indoleamine 2,3-dioxygenase1 (hIDO1) (Homo sapiens (Human), UniProt P14902)) for Nc1sc2ccc(Cl)cc2c1Nc1ccccc1
200 to 1000 nM

# returns recorded IC50 (system: Human indoleamine 2,3-dioxygenase1 (hIDO1) (Homo sapiens (Human), UniProt P14902)) for Nc1sc2c(-c3ccncc3)cccc2c1Nc1ccc(F)c(Cl)c1
< 200 nM

# returns recorded IC50 (system: Human indoleamine 2,3-dioxygenase1 (hIDO1) (Homo sapiens (Human), UniProt P14902)) for CCOC(=O)Nc1oc2c(C#Cc3ccc(C(N)=O)cc3)nccc2c1N(C(=O)OCC)c1ccc(F)c(Cl)c1
> 1000 nM

# returns recorded IC50 (system: Human indoleamine 2,3-dioxygenase1 (hIDO1) (Homo sapiens (Human), UniProt P14902)) for C#Cc1cccc(Nc2c(N)oc3c(-c4ccccc4)nccc23)c1
< 200 nM

# returns recorded IC50 (system: Human indoleamine 2,3-dioxygenase1 (hIDO1) (Homo sapiens (Human), UniProt P14902)) for Nc1sc2ccc(Cl)cc2c1Nc1cccc(C(F)(F)F)c1 [Compound 133, hydrochloride]
200 to 1000 nM

# returns recorded IC50 (system: Human indoleamine 2,3-dioxygenase1 (hIDO1) (Homo sapiens (Human), UniProt P14902)) for CCOC(=O)Nc1oc2c(-c3ccnc(C)c3)nccc2c1N(C(=O)OCC)c1ccc(F)c(F)c1
> 1000 nM

# returns recorded IC50 (system: Human indoleamine 2,3-dioxygenase1 (hIDO1) (Homo sapiens (Human), UniProt P14902)) for Cc1ccc(Nc2c(N)oc3cnccc23)cc1Br
200 to 1000 nM

# returns recorded IC50 (system: Human indoleamine 2,3-dioxygenase1 (hIDO1) (Homo sapiens (Human), UniProt P14902)) for CCOC(=O)Nc1oc2c(C#N)nccc2c1N(C(=O)OCC)c1ccc(F)c(Cl)c1
> 1000 nM

# returns recorded IC50 (system: Human indoleamine 2,3-dioxygenase1 (hIDO1) (Homo sapiens (Human), UniProt P14902)) for Nc1oc2c(-c3cccc4ccccc34)nccc2c1Nc1ccc(F)c(Cl)c1
< 200 nM

# returns recorded IC50 (system: Human indoleamine 2,3-dioxygenase1 (hIDO1) (Homo sapiens (Human), UniProt P14902)) for Nc1oc2cncc(Cl)c2c1Nc1ccc(F)c(Cl)c1
> 1000 nM

# returns recorded IC50 (system: Human indoleamine 2,3-dioxygenase1 (hIDO1) (Homo sapiens (Human), UniProt P14902)) for Nc1oc2cnccc2c1Nc1ccc(F)cc1
200 to 1000 nM

# returns recorded IC50 (system: Human indoleamine 2,3-dioxygenase1 (hIDO1) (Homo sapiens (Human), UniProt P14902)) for Nc1oc2cnccc2c1Nc1ccc(Cl)cc1
> 1000 nM

# returns recorded IC50 (system: Human indoleamine 2,3-dioxygenase1 (hIDO1) (Homo sapiens (Human), UniProt P14902)) for N#Cc1ccc(-c2nccc3c(Nc4ccc(F)c(Cl)c4)c(N)oc23)cc1
< 200 nM

# returns recorded IC50 (system: Human indoleamine 2,3-dioxygenase1 (hIDO1) (Homo sapiens (Human), UniProt P14902)) for COc1ccc(Cl)cc1Nc1c(N)oc2cnccc12
> 1000 nM

# returns recorded IC50 (system: Human indoleamine 2,3-dioxygenase1 (hIDO1) (Homo sapiens (Human), UniProt P14902)) for CCOC(=O)Nc1oc2c(Br)nccc2c1N(C(=O)OCC)c1ccc(F)c(Cl)c1
> 1000 nM

# returns recorded IC50 (system: Human indoleamine 2,3-dioxygenase1 (hIDO1) (Homo sapiens (Human), UniProt P14902)) for Cc1cc(Cl)cc(Nc2c(N)oc3cnccc23)c1
200 to 1000 nM

----------
Kindly supply the reported pIC50 values for the records listed here.
Molecular target: Human TDO (hTDO)-transfected CHO-K1 cells (Homo sapiens (Human))
Sequence (P48775 whole entry): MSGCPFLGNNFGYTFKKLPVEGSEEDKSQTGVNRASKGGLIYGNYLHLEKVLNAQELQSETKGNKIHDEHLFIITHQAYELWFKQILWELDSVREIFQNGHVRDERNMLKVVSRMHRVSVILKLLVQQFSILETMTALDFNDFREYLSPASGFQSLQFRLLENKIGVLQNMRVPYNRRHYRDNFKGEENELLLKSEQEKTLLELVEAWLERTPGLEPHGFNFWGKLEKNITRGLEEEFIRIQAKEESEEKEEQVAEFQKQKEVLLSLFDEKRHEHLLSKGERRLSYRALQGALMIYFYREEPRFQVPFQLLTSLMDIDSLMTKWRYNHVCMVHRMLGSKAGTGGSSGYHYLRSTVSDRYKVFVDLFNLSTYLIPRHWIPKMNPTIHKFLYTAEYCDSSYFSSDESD
Test: CHO-K1 cell based TDO assay
Settings: hTDO cellular assay
pIC50: −log10 of the molar value.

GET /values?readout=pIC50&item= COc1ccc(Cl)cc1Nc1c(N)oc2cnccc12 [Compound 25]
5.70 to 6.30

GET /values?readout=pIC50&item= Cc1cc(-c2nccc3c(Nc4cccc(Cl)c4F)c(N)oc23)ccn1 [Compound 264]
< 5.70

GET /values?readout=pIC50&item= CCCc1nccc2c(Nc3ccc(F)c(C(F)(F)F)c3)c(N)oc12 [Compound 79]
5.70 to 6.30

----------
Target: Human TDO (hTDO)-transfected CHO-K1 cells (Homo sapiens (Human))
Test: CHO-K1 cell based TDO assay
Conditions: hTDO cellular assay
pIC50: −log10 of the molar value. Where a name gives a salt, the structure may show the parent alone.
Kindly supply the reported pIC50 values for the records listed here.

GET /values?readout=pIC50&item= Nc1oc2cnc(F)cc2c1Nc1ccccc1Cl
5.70 to 6.30

GET /values?readout=pIC50&item= Cc1ncc(CO)c2c(Nc3ccc(F)c(Cl)c3)c(N)oc12
< 5.70

GET /values?readout=pIC50&item= CNC(=O)c1cc(-c2nccc3c(Nc4cccc(Cl)c4)c(N)oc23)ccn1
5.70 to 6.30

GET /values?readout=pIC50&item= C#Cc1cccc(Nc2c(N)sc3ccccc23)c1
< 5.70

GET /values?readout=pIC50&item= N#Cc1nccc2c(Nc3ccccc3Cl)c(N)oc12
< 5.70

GET /values?readout=pIC50&item= Cc1cc(-c2nc(C)cc3c(Nc4ccc(F)c(Cl)c4)c(N)oc23)ccn1
< 5.70

GET /values?readout=pIC50&item= Nc1oc2cnccc2c1Nc1cccc(Cc2ccccc2)c1
< 5.70

GET /values?readout=pIC50&item= Nc1oc2cnccc2c1Nc1cccc(Cl)c1
5.70 to 6.30

GET /values?readout=pIC50&item= Nc1oc2cnccc2c1Nc1cccc(C(F)(F)F)c1
5.70 to 6.30

GET /values?readout=pIC50&item= Nc1sc2ccccc2c1Oc1cccc(Cl)c1 [Compound 127, hydrochloride]
< 5.70

GET /values?readout=pIC50&item= Nc1oc2cnccc2c1Nc1ccc(Br)cc1
5.70 to 6.30

GET /values?readout=pIC50&item= N#Cc1nccc2c(Nc3ccc(F)c(F)c3)c(N)oc12
> 6.30

GET /values?readout=pIC50&item= Nc1sc2ccc(Cl)cc2c1Nc1ccc(F)cc1
5.70 to 6.30

GET /values?readout=pIC50&item= Nc1oc2c(-c3ccccc3)nccc2c1Nc1ccc(F)c(Cl)c1
> 6.30

GET /values?readout=pIC50&item= Nc1sc2ccc(Cl)cc2c1Nc1ccccc1
< 5.70

GET /values?readout=pIC50&item= Nc1oc2c(-c3ccnc(N4CCOCC4)c3)nccc2c1Nc1ccc(F)c(Cl)c1
< 5.70

GET /values?readout=pIC50&item= CCCNC(=O)c1cc(-c2nccc3c(Nc4ccc(F)c(Cl)c4)c(N)oc23)ccn1
< 5.70

GET /values?readout=pIC50&item= CCOC(=O)Nc1oc2c(-c3cccc(C#N)c3)nccc2c1N(C(=O)OCC)c1ccc(F)c(Cl)c1
< 5.70

GET /values?readout=pIC50&item= N#Cc1cccc(Nc2c(N)oc3cnccc23)c1F
< 5.70

GET /values?readout=pIC50&item= CCc1nccc2c(Nc3ccc(F)c(Cl)c3)c(N)oc12
> 6.30

GET /values?readout=pIC50&item= Nc1oc2c(-c3ccncc3)nccc2c1Nc1cccc(C(F)(F)F)c1
5.70 to 6.30

GET /values?readout=pIC50&item= Nc1oc2c(-c3ccc(F)cc3)nccc2c1Nc1ccc(F)c(Cl)c1
5.70 to 6.30

GET /values?readout=pIC50&item= Nc1oc2c(-c3cccnc3)nccc2c1Nc1ccc(F)c(Cl)c1
> 6.30

GET /values?readout=pIC50&item= Nc1sc2ccccc2c1Sc1cccc(Cl)c1
< 5.70

GET /values?readout=pIC50&item= N#Cc1ccc(-c2nccc3c(Nc4ccc(F)c(Cl)c4)c(N)oc23)cc1
5.70 to 6.30
